Catalogue of koff readings, one per entry.
tgt: T1, human TfR extracellular domain with N-terminal His tag (human, UniProt P02786 89-760)
T1 construct: Biotinylated in some assays; also called huTfR; HuTfR
protocol text: SPR, TfR captured by anti-His, Fab injected;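 also: single cycle kinetics with a Fab dilution series, fitted by a one-to-one Langmuir model or a steady state model, KD taken as koff over kon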
Give just the numeric value; s⁻¹ need not be written.

• Mu16F6.Fab (Fab, V domains shown, Fab; also called mouse 16F6 Fab) VH: DVQLQESGPGLVKPSQSLSLTCTVTGNSITSEYAWNWIRQFPGNKLEWMGYISYSGTTSYNPSLKSRISITRDTSKNQLFLQLNSVTTEDTATYFCARYGYGNPATRYFDVWGAGTTVTVSS VL: DVQITQSPSYLTASPGETITINCRASKSISKYLAWYQEKPGKTNKLLIYSGSTLQSGIPSRFSGSGSGTDFTLTISNLEPEDFAMYYCQQHNEYPWTFGGGTKLEIK = 0.00019

Req: Which koff is listed for Hu7A4.v8.Fab (Fab, V domains shown, Fab) VH: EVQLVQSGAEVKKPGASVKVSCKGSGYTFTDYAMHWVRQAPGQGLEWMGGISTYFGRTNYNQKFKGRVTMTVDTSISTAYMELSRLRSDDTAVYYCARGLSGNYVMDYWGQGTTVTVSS VL: DIVMTQSPDSLAVSLGERATINCRASESVDSYGNSFMHWYQQKPGQPPKLLIYRASNLESGIPDRFSGSGSGTDFTLTISSLQAEDVAVYYCQQSNEGPPTFGQGTKLEIK ?
Resp: 0.00107
